measured_target: MCH receptor (Homo sapiens, UniProt Q99705)
assay_name: High throughput functional screening FLIPR/FDSS6000 (intracellular Ca2+ evoked by MCH)
Format: cell-based
conditions_used: FLIPR/FDSS, antagonist activity vs 50 nM MCH; class by percent of control at 10^−7 M or IC50; read-out: class
Property: IC50; scope: individual molecules
readout: IC50

* Cc1cc(N(C)C)nc(N[C@H]2CC[C@@H](NC(=O)NC(C)(C)c3ccc(Cl)cc3)CC2)n1 | 50 to 200 nM
* Cc1cc(N[C@H]2CC[C@@H](C(=O)N[C@@H](C)c3ccccc3F)CC2)nc2ccccc12 | < 50 nM
* Cc1cnc(N[C@H]2CC[C@@H](NC(=O)NCc3ccccc3)CC2)nc1N(C)C | 50 to 200 nM
* Cc1cnc(N[C@H]2CC[C@@H](NC(=O)COc3cc(C(F)(F)F)ncn3)CC2)nc1N(C)C | > 200 nM
* Cc1cnc(N[C@H]2CC[C@@H](NC(=O)Nc3ccc(F)c(F)c3)CC2)nc1N(C)C | 50 to 200 nM
* Cc1cc(N(C)C)nc(N[C@H]2CC[C@@H](NC(=O)c3cccnc3S(=O)(=O)c3ccc(Cl)cc3)CC2)n1 | > 200 nM
* Cc1cnc(N[C@H]2CC[C@@H](NCC(=O)c3ccc(Cl)cc3)CC2)nc1N(C)C | 50 to 200 nM
* Cc1cnc(N[C@H]2CC[C@@H](NC(=O)Nc3ccc(Cl)c(Cl)c3)CC2)nc1N(C)C | 50 to 200 nM
* Cc1cc(N[C@H]2CC[C@@H](NC(=O)c3ccc(OC(F)(F)F)cc3)CC2)nc2ccccc12 | < 50 nM
* Cc1cnc(N[C@H]2CC[C@@H](C(=O)N[C@@H](C)c3cc(C(F)(F)F)cc(C(F)(F)F)c3)CC2)nc1N(C)C | > 200 nM
* Cc1cc(N(C)C)nc(N[C@H]2CC[C@@H](NC(=O)N(C)C(C)(C)c3cc(C(F)(F)F)cc(C(F)(F)F)c3)CC2)n1 | > 200 nM
* Cc1cnc(NC2CCC(C(=O)N[C@H](C)c3ccccc3C(F)(F)F)CC2)nc1N(C)C (some centres unmarked) | > 200 nM
* Cc1cc(N[C@H]2CC[C@@H](C(=O)N[C@H](C)c3cccc(C(F)(F)F)c3)CC2)nc2ccccc12 | < 50 nM
* Cc1cnc(N[C@H]2CC[C@@H](NC(=O)Nc3ccc(Cl)cc3Cl)CC2)nc1N(C)C | 50 to 200 nM

---

measured_target: MCH receptor (Homo sapiens)
assay_name: High throughput functional screening FLIPR/FDSS6000 (intracellular Ca2+ evoked by MCH)
Assay type: cell-based
conditions_used: FLIPR/FDSS, antagonist activity vs 50 nM MCH; class by percent of control at 10^−7 M or IC50; table after the classification; read-out: class
pIC50: −log10 of the molar value. Counter-ions that a name gives are not always drawn.
Property: pIC50; scope: individual compounds
readout: pIC50

• Cc1cnc(N[C@H]2CC[C@@H](NC(=O)c3cccnc3Oc3ccccc3Br)CC2)nc1N(C)C [Example 3124, hydrochloride] = > 7.30
• Cc1cc(N[C@H]2CC[C@@H](NC(=O)c3ccc(F)cc3)CC2)nc2ccccc12 [Example 3169, hydrochloride] = > 7.30
• Cc1cc(N[C@H]2CC[C@@H](NC(=O)Nc3cccc(Cl)c3Cl)CC2)nc2ccccc12 [Example 3072, hydrochloride] = > 7.30
• CN(C)c1ccnc(N[C@H]2CC[C@@H](NC(=O)c3ccccn3)CC2)n1 [Example 3208, hydrochloride] = < 6.70
• O=C(N[C@H]1CC[C@@H](Nc2ccc3ccccc3n2)CC1)c1ccc(F)c(F)c1 [Example 3031, hydrochloride] = > 7.30

---

measured_target: MCH receptor (Homo sapiens, UniProt Q99705)
assay_name: High throughput functional screening FLIPR/FDSS6000 (intracellular Ca2+ evoked by MCH)
Assay type: cell-based
conditions_used: FLIPR/FDSS, antagonist activity vs 50 nM MCH; class by percent of control at 10^−7 M or IC50; table after the classification; read-out: class
pIC50: −log10 of the molar value. Where a name gives a salt, the structure may show the parent alone.
Property: pIC50; scope: individual molecules
readout: pIC50

- CN(C)c1ccnc(N[C@H]2CC[C@@H](NC(=O)c3ccncc3)CC2)n1 [Example 3210, dihydrochloride]: < 6.70
- Cc1cc(N[C@H]2CC[C@@H](NC(=O)c3ccc(Cl)c(F)c3)CC2)nc2ccccc12 [Example 3168, hydrochloride]: > 7.30
- CCN(C)c1ccnc(N[C@H]2CC[C@@H](NC(=O)c3ccc(F)c(F)c3)CC2)n1 [Example 3226, hydrochloride]: < 6.70
- Cc1cc(N[C@H]2CC[C@@H](NC(=O)c3cccc(C(N)=O)c3)CC2)nc2ccccc12 [Example 3178, hydrochloride]: 6.70 to 7.30

---

Property: IC50; scope: individual compounds
measured_target: MCH receptor (Homo sapiens, UniProt Q99705)
assay_name: High throughput functional screening FLIPR/FDSS6000 (intracellular Ca2+ evoked by MCH)
Type: cell-based
conditions_used: FLIPR/FDSS, antagonist activity vs 50 nM MCH; class by percent of control at 10^−7 M or IC50; table after the classification; read-out: class
Where a name gives a salt, the structure may show the parent alone.
readout: IC50

* O=C(N[C@H]1CC[C@@H](Nc2ccc3ccccc3n2)CC1)c1cccnc1Oc1ccc(Cl)cc1 [Example 3057, hydrochloride] | < 50 nM
* Cc1cnc(N[C@H]2CC[C@@H](CNC(=O)Nc3cccc(Cl)c3Cl)CC2)nc1N(C)C [Example 3125, hydrochloride] | < 50 nM
* Cc1cc(N[C@H]2CC[C@@H](NC(=O)c3ccc(Br)o3)CC2)nc2ccccc12 [Example 3083, hydrochloride] | < 50 nM
* Cc1cnc(N[C@H]2CC[C@@H](NC(=O)c3cc(F)cc(Cl)c3)CC2)nc1N(C)C [Example 3388, hydrochloride] | < 50 nM
* CN(C)c1cc(Cl)nc(N[C@H]2CC[C@@H](NC(=O)c3ccc(F)c(F)c3)CC2)n1 [Example 3234, hydrochloride] | > 200 nM
* COc1cc(OC)cc(C(=O)N[C@H]2CC[C@@H](Nc3ccc4ccccc4n3)CC2)c1 [Example 3039, hydrochloride] | < 50 nM
* CCNc1ccnc(N[C@H]2CC[C@@H](NC(=O)c3ccc(F)c(F)c3)CC2)n1 [Example 3225, hydrochloride] | > 200 nM
* O=C(N[C@H]1CC[C@@H](Nc2cc(Cl)c3ccccc3n2)CC1)c1cccnc1Oc1ccccc1 [Example 3115, hydrochloride] | < 50 nM
* CN(C)c1ccnc(N[C@H]2CC[C@@H](CNC(=O)c3ccc(F)c(F)c3)CC2)n1 [Example 3219, hydrochloride] | 50 to 200 nM
* CN(C)c1ccnc(N[C@H]2CC[C@@H](NC(=O)c3cncc(Br)c3)CC2)n1 [Example 3211, hydrochloride] | < 50 nM
* COc1ccc(Oc2ncccc2C(=O)N[C@H]2CC[C@@H](Nc3cc(C)c4ccccc4n3)CC2)cc1 [Example 3095, hydrochloride] | < 50 nM
* Cc1cc(N[C@H]2CC[C@@H](NC(=O)c3cncc(Br)c3)CC2)nc2ccccc12 [Example 3185, dihydrochloride] | < 50 nM
* CN(C)c1ccnc(N[C@H]2CC[C@@H](NC(=O)c3ccc(F)c(Cl)c3)CC2)n1 [Example 3206, hydrochloride] | < 50 nM
* Cc1cc(N[C@H]2CC[C@@H](NC(=O)CNc3ccc(Cl)c(Cl)c3)CC2)nc2ccccc12 [Example 3103, dihydrochloride] | 50 to 200 nM

---

measured_target: UniProtKB Q99705
assay_name: High throughput functional screening FLIPR/FDSS6000 (intracellular Ca2+ evoked by MCH)
Assay type: cell-based
conditions_used: FLIPR/FDSS, antagonist activity vs 50 nM MCH; class by percent of control at 10^−7 M or IC50; read-out: class
pIC50: −log10 of the molar value.
readout: pIC50

- Cc1cnc(NC2CCC(C(=O)N[C@@H](C)c3cccc(C(F)(F)F)c3)CC2)nc1N(C)C (stereo partly drawn): > 7.30
- Cc1cnc(N[C@H]2CC[C@@H](NC(=O)Nc3cccc(F)c3)CC2)nc1N(C)C: 6.70 to 7.30
- Cc1cc(N(C)C)nc(N[C@H]2CC[C@@H](NC(=O)c3cccnc3S(=O)(=O)c3ccccc3Cl)CC2)n1: 6.70 to 7.30
- Cc1cc(N(C)C)nc(N[C@H]2CC[C@@H](NC(=O)c3cccnc3S(=O)(=O)c3ccc(Br)cc3)CC2)n1: < 6.70
- CNc1nc(N[C@H]2CC[C@@H](NC(=O)COc3cc(C(F)(F)F)ncn3)CC2)ncc1C: < 6.70
- Cc1cnc(N[C@H]2CC[C@@H](NC(=O)c3cccnc3S(=O)(=O)c3cccc(Br)c3)CC2)nc1N(C)C: 6.70 to 7.30
